- EXPERIMENTAL TARGET: pooled human IgG
Mark yes (1) for reported Enzyme Activity Endpoint Assay (purified): Fab'2 of 800 ng/µL or greater; mark no (0) for anything smaller.

>>> answer_label("PRT-138 (protein) MRNATEAYAKEVPHQITSVWTKGVTPPTPEQFRYNNEDVIHAPYLAHQGWYDITKAFDGKDNLLCGAATAGNMLHWWFDQNKTEIEAYLSKHPEKQKIIFNNQELFDLKAAIDTKDSQTNSQLFNYFRDKAFPNLSARQLGVMPDLVLDMFINGYYLNVFKTQSTDVNRPYQDKDKRGGIFDAVFTRGDQTTLLTARHDLKNKGLNDISTIIKQELTEGRALALSHTYANVSISHVINLWGADFNAEGNLEAIYVTDSDANASIGMKKYFVGINAHGHVAISAKKIEGENIGAQVLGLFTLSSGKDIWQKLS")
"no (0)"
>>> answer_label("PRT-133 (protein) MRNATEAYAKEVPHQITSVWTKGVTPLTPEQFRYNNEDVIHAPYLAHQGWYDITKTFDGKDNLLCGAATAGNMLHWWFDQNKTEIEAYLSKHPEKQKIIFNNQELFDLKAAIDTKDSQTNSQLFNYFRDKAFPNLSARQLGVMPDLVLDMFINGYYLNVFKTQSTDVNRPYQDKDKRGGIFDAVFTRGDQTTLLTARHDLKNKGLNDISTIIKQELTEGRALALSHTYANVSISHVINLWGADFNAEGNLEAIYVTDSDANASIGMKKYFVGINAHGHVAISAKKIEGENIGAQVLGLFTLSSGKDIWQKLS")
"no (0)"
>>> answer_label("IdeS (protein) ANQEIRYSEVTPYHVTSVWTKGVTPPANFTQGEDVFHAPYVANQGWYDITKTFNGKDDLLCGAATAGNMLHWWFDQNKDQIKRYLEEHPEKQKINFNGEQMFDVKEAIDTKNHQLDSKLFEYFKEKAFPYLSTKHLGVFPDHVIDMFINGYRLSLTNHGPTPVKEGSKDPRGGIFDAVFTRGDQSKLLTSRHDFKEKNLKEISDLIKKELTEGKALGLSHTYANVRINHVINLWGADFDSNGNLKAIYVTDSDSNASIGMKKYFVGVNSAGKVAISAKEIKEDNIGAQVLGLFTLSTGQDSWNQTN")
"yes (1)"
>>> answer_label("PRT-329 (protein) MTITSVWTKGVTPPTPEDFRENNEDVLHAPYVANQGWYDITKTFDGKDNLLCGAATAGNMLHWWFDQNKEEIERYLKKHPEKQKIIFNNQELFDVKAAIDTKDSQTNSKLFNYFRDKAFPGLSARQLGVFPDLVLDMFINGYYLNLGKTQSTDVNRPYQDKDKRGGIFDAVFTRGVQTTLLTARHDLKNKGLNEISDLIKQELTEGKALALSHTYANVRINHVINLWGADFDAEGNLIAIYVTDSDANASIGMKKYFVGRNANGKVAISAKKIEGDNIGAQVLGLFTLSLGQDIWQKLS")
"yes (1)"
>>> answer_label("PRT-134 (protein) MRNATEAYAKEVPHQITSVWTKGVTPLTPEQFRYNNEDVIHAPYLAHQGWYDITKAFDGKDNLLCGAATAGNMLHWWFDQNKTEIEAYLSKHPEKQKIIFNNQELFDLKAAIDTKDSQTNSQLFNYFRDKAFPNLSARQLGVMPDLVLDMFINGYYLNVFKTQSTDVNRPYQDKDKRGGIFDAVFTRGDQTTLLTARHDLKNKGLNDISTLIKQELTEGRALALSHTYANVSISHVINLWGADFNAEGNLEAIYVTDSDANASIGMKKYFVGINAHGHVAISAKKIEGENIGAQVLGLFTLSSGKDIWQKLS")
"no (0)"
>>> answer_label("PRT-128 (protein) MRNATEAYAKEVPKQITSVWTKGVTPPTPEQFRYNNEDVIHAPYLANQGWYDITKTFNGKDNLLCGAATAGNMLHWWFDQNKTEIEAYLSKHPEKQKIIFNNQELFDLKAAIDTKDSQTNSQLFNYFRDKAFPNLSARQLGVMPDLVLDMFINGYYLNVFKTQSTDVNRPYQDKDKRGGIFDAVFTRGDQTTLLTARHDLKNKTLNDISTLIKQELTEGKALALSHTYANVSISHVINLWGADFNAEGNLEAIYVTDSDANASIGMKKYFVGVNAHGKVAISAKKIEGENIGAQVLGLFTLSSGKDIWQKLS")
"no (0)"
